# TARGET_ENTITY: PAF receptor (Oryctolagus cuniculus, UniProt G1TEI7)
# Construct: platelet membranes were prepared by centrifugation and washing; tissue Pel-Freez (Rogers, AR)
# Sequence (G1TEI7 1-342): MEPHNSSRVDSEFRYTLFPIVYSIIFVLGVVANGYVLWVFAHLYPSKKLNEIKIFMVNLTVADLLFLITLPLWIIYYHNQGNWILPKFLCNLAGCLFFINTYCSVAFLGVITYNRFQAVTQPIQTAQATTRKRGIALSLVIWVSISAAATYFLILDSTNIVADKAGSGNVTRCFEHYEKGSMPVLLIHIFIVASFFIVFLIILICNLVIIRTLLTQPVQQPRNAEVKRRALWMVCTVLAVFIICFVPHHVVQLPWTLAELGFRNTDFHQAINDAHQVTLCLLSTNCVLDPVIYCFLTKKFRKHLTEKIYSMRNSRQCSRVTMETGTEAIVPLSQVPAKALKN
# ASSAY_OVERVIEW: PAF receptor binding assay ([^3 H]C18 -PAF, rabbit platelet membranes)
# EXPERIMENTAL_PARAMETERS: 0.6 nM [^3 H]C18 -PAF, 60 min, 22-23 °C, Ki from IC50 by Cheng and Prusoff
pKi: −log10 of the molar value. Counter-ions that a name gives are not always drawn.
Each record here notes measured pKi.
OBSERVATION_TYPE: pKi

COMPOUND: COc1cc(C(=O)c2cccc(NCC3CSC(c4cccnc4)N3)c2)cc(OC)c1OC (centres unmarked) [Example 2, trihydrochloride]
RECORDED_MEASUREMENT: 8.00

COMPOUND: O=C(NCC1CSC(c2cccnc2)S1)Nc1cccc(C(=O)c2ccccc2)c1 (centres unmarked)
RECORDED_MEASUREMENT: 6.12

COMPOUND: COc1cc(C(=O)c2cccc(NCC3CSC(c4cccnc4)N3C(=O)OC(C)(C)C)c2)cc(OC)c1OC (single isomer, unassigned) [Example 1b]
RECORDED_MEASUREMENT: 4.89

COMPOUND: COc1cc(C(=O)c2cccc(NC(=O)NCC3CSC(c4cccnc4)N3)c2)cc(OC)c1OC (centres unmarked)
RECORDED_MEASUREMENT: 6.96

COMPOUND: COc1cc(C(=O)c2cccc(NC[C@H]3CC[C@@H](c4cccnc4)N3)c2)cc(OC)c1OC (relative stereo) [13 (cis)]
RECORDED_MEASUREMENT: 5.64
